The reported numbers originate from ChEMBL document CHEMBL3758073.

- Test system: MCF7
- test: Antiproliferative activity against human MCF7 cells assessed as cell viability pre-incubated for 24 hrs with CO2 followed by compound addition after 72 hrs by MTT assay
- Assay type: functional, cell-based
pIC50: −log10 of the molar value.

{"columns": ["compound", "pIC50"],
 "data": [
  ["COc1ccc([C@@H]2[C@@H](Oc3ccccc3)C(=O)N2c2cc(OC)c(OC)c(OC)c2)cc1Br (relative stereo)", 4.51],
  ["COc1ccc([C@@H]2[C@H](Oc3ccccc3)C(=O)N2c2cc(OC)c(OC)c(OC)c2)c(N)c1O (relative stereo)", 4.72],
  ["COc1ccc([C@@H]2[C@H](Oc3ccccc3)C(=S)N2c2cc(OC)c(OC)c(OC)c2)cc1O (relative stereo)", 5.12],
  ["COc1ccc([C@@H]2[C@H](Oc3ccccc3)C(=O)N2c2cc(OC)c(OC)c(OC)c2)cc1Br (relative stereo)", 5.29],
  ["COc1ccc([C@@H]2[C@H](Oc3ccccc3)C(=O)N2c2cc(OC)c(OC)c(OC)c2)cc1NC(=O)CCCc1ccc(N(CCCl)CCCl)cc1 (relative stereo)", 3.84],
  ["COc1ccc([C@@H]2[C@H](Oc3ccccc3)C(=O)N2c2cc(OC)c(OC)c(OC)c2)cc1F (relative stereo)", 5.20],
  ["COc1cc(N2C(=O)[C@@H](Oc3ccccc3)[C@H]2c2ccc(O)cc2)cc(OC)c1OC (relative stereo)", 4.32],
  ["COc1ccc([C@@H]2[C@H](Oc3ccccc3)C(=O)N2c2cc(OC)c(OC)c(OC)c2)cc1OC (relative stereo)", 4.59],
  ["COc1cc(N2C(=O)[C@@H](Oc3ccccc3)[C@H]2c2ccc3ccccc3c2)cc(OC)c1OC (relative stereo)", 3.55],
  ["COc1cc(N2C(=O)[C@@H](Oc3ccccc3)[C@H]2c2cc(N)c(OC)c(O)c2)cc(OC)c1OC (relative stereo)", 5.06],
  ["COc1ccc([C@@H]2[C@H](Oc3cc(OC)c(OC)c(OC)c3)C(=O)N2c2cc(OC)c(OC)c(OC)c2)cc1O (relative stereo)", 4.48],
  ["COc1cc(N2C(=O)[C@@H](Oc3ccccc3)[C@H]2c2ccc(N)cc2)cc(OC)c1OC (relative stereo)", 3.80],
  ["COc1ccc([C@@H]2[C@H](Oc3ccccc3)C(=O)N2c2cc(OC)c(OC)c(OC)c2)cc1OP(=O)(O)O (relative stereo)", 4.38],
  ["COc1cc(N2C(=O)[C@H](Oc3ccccc3)[C@H]2c2ccc(C#N)cc2)cc(OC)c1OC (relative stereo)", 3.77],
  ["COc1cc(N)c([C@@H]2[C@H](Oc3ccccc3)C(=O)N2c2cc(OC)c(OC)c(OC)c2)cc1O (relative stereo)", 4.70],
  ["COc1cc(N2C(=O)[C@@H](Oc3ccccc3)[C@H]2c2ccc(SC)cc2)cc(OC)c1OC (relative stereo)", 5.11],
  ["COc1cc(N2C(=O)[C@@H](Oc3ccccc3)[C@H]2c2ccc(Br)cc2)cc(OC)c1OC (relative stereo)", 4.32],
  ["COc1cc(N2C(=O)[C@@H](Oc3ccccc3)[C@H]2c2ccc([S+](C)[O-])cc2)cc(OC)c1OC (relative stereo)", 4.70],
  ["COc1cc(N2C(=O)[C@@H](Oc3ccccc3)[C@H]2c2ccc(N(C)C)cc2)cc(OC)c1OC (relative stereo)", 4.51],
  ["COc1ccc([C@@H]2[C@H](Oc3ccccc3)C(=O)N2c2cc(OC)c(OC)c(OC)c2)cc1NC(=O)C(C)N (relative stereo)", 5.04],
  ["COc1ccc([C@@H]2[C@@H](Oc3ccccc3)C(=O)N2c2cc(OC)c(OC)c(OC)c2)cc1OP(=O)(O)O (relative stereo)", 4.64],
  ["COc1cc(N2C(=O)[C@@H](Oc3ccccc3)[C@H]2c2ccc(N=[N+]=[N-])cc2)cc(OC)c1OC (relative stereo)", 4.64],
  ["COc1ccc(/C=C\\c2cc(OC)c(OC)c(OC)c2)cc1O", 8.41],
  ["COc1ccc(N2C(=O)[C@@H](Oc3ccccc3)[C@H]2c2ccc(OC)c(O)c2)cc1 (relative stereo)", 4.31],
  ["COc1ccc([C@@H]2[C@@H](Oc3ccccc3)C(=O)N2c2cc(OC)c(OC)c(OC)c2)cc1NC(=O)C(C)N (relative stereo)", 6.64],
  ["COc1ccc([C@@H]2[C@H](Oc3ccccc3)CN2c2cc(OC)c(OC)c(OC)c2)cc1O", 5.48],
  ["COc1cc(N2C(=O)[C@@H](Oc3ccccc3)[C@H]2c2ccc(O)c(O)c2)cc(OC)c1OC (relative stereo)", 5.35],
  ["COc1ccc([C@@H]2[C@@H](Oc3ccccc3)C(=O)N2c2cc(OC)c(OC)c(OC)c2)cc1N (relative stereo)", 7.89]
]}
